System: OVCAR-3 ovarian
Test: NCI tumour cell line growth inhibition, 48 h; in the data active = GI50 below about 0.43 µM; inactive = the rest
I would appreciate it if you answered using one of these outcomes: true (active), false (inactive)

Known results for compounds:
compound	answer.label
NC(Cc1c[nH]c2c(O)cccc12)C(=O)O (stereo not drawn)	false
NC(=O)c1cccc2cn(-c3ccc([C@@H]4CCCNC4)cc3)nc12	false
OCc1ccc(N2CCC2c2ccc(F)cc2)cc1Cl (stereo not drawn)	false
Cc1ccc(NC2=C(Cl)C(=O)N(Cc3ccccc3)C2=O)cc1O	false

In: What classification did NC(=O)c1sc(-n2cnc3ccccc32)cc1OCc1ccccc1Br end up with in this test?
Out: false

In: What classification did COc1cc(/C=N/NC(=O)c2ccc(C(F)(F)F)nc2Nc2ccc(Cl)cc2C)ccc1O end up with in this test?
Out: false

In: What classification did CC1=C(C(=O)Nc2ccc(Cl)c(Cl)c2)C(c2cccc(Oc3ccccc3)c2)NC(=S)N1 (stereo not drawn) end up with in this test?
Out: false

In: What classification did COC1=CC(c2ccc[nH]2)=N/C1=C\c1[nH]c(C)c(C(=O)OC(C)C)c1C end up with in this test?
Out: true

In: What classification did Cc1ccc(C(=O)/C(=C/c2ccc([N+](=O)[O-])cc2)SCc2ccc(Cl)cc2)cc1 end up with in this test?
Out: false

In: What classification did COc1ccc(-c2nc3sccn3c2/C(N)=N/C(=N)N)cc1OC end up with in this test?
Out: false
